Measured IC50 (nM), HGF stimulated BrdU incorporation in 4MBr-5 cells accompanies every entry in the list below.
# EXPERIMENTAL_SYSTEM: recombinant human HGF (R&D Systems, Catalog No. 294-HGN-025) (human, UniProt P14210 32-728)
# Sequence (P14210 32-728 limits assumed): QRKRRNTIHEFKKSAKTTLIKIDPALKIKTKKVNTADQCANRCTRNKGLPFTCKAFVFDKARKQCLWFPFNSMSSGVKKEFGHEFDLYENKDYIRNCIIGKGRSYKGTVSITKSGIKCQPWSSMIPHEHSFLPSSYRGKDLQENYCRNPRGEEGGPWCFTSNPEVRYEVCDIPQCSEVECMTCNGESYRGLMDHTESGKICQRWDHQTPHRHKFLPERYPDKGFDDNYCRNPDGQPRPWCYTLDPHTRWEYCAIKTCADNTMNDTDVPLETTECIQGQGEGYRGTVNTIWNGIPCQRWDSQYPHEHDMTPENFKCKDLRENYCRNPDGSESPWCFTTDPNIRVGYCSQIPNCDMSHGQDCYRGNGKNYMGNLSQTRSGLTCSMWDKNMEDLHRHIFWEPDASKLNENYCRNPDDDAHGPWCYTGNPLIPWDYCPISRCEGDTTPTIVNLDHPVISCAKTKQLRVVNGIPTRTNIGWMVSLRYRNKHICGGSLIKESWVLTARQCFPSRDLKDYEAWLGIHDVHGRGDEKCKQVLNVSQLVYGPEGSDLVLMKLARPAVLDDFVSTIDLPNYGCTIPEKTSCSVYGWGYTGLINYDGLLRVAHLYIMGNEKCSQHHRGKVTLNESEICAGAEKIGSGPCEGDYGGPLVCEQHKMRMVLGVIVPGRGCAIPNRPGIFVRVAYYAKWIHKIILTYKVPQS
# ASSAY_NOTES: cell-based or functional assay
Express it in nM; write the number only.

{"BINDER": "HE2B8-2 (LR2B8HC + IgG1 G1m(3) allele 1 plus LRMR2B8LC + Kappa Km(3) allele 1) (antibody, V domains shown) VH: QVQLVQPGAEVVKPGTSVKLSCKASGYTFTTYWMHWVNQAPGQGLEWIGEINPTNGHTNYNEKFKGKATLTVDKSTSTAYMELSSLRSEDTAVYYCARNYVGSIFDYWGQGTLLTVSS VL: DIVMTQSPDSLAMSLGERVTLNCKASENVVSYVSWYQQKPGQSPKLLIYGASNRESGVPDRFSGSGSATDFTLTISSVQAEDVADYHCGQSYNYPYTFGQGTKLEIKR", "UNIT_SYMBOL": "nM", "RECORDED_NUMBER": 0.66}

Which IC50 (nM), HGF stimulated BrdU incorporation in 4MBr-5 cells value belongs to HE2B8-4 (LRMR2B8HC + IgG1 G1m(3) allele 1 plus LRMR2B8LC + Kappa Km(3) allele 1) (antibody, V domains shown) VH: QVQLVQPGAEVKKPGTSVKLSCKASGYTFTTYWMHWVRQAPGQGLEWIGEINPTNGHTNYNQKFQGRATLTVDKSTSTAYMELSSLRSEDTAVYYCARNYVGSIFDYWGQGTLLTVSS VL: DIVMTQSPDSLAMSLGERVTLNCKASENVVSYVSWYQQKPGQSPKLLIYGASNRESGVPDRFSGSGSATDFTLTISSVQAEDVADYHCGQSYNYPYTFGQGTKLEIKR ?
0.58

Which IC50 (nM), HGF stimulated BrdU incorporation in 4MBr-5 cells value belongs to HE2B8-3 (LRMR2B8HC + IgG1 G1m(3) allele 1 plus LR2B8LC + Kappa Km(3) allele 1) (antibody, V domains shown) VH: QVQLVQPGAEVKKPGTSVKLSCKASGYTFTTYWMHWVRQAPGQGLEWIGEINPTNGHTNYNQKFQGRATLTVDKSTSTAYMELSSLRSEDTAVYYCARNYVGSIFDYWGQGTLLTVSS VL: DIVMTQSPDSMAMSVGERVTLNCKASENVVSYVSWYQQKPGQSPKLLIYGASNRNTGVPDRFSGSGSATDFTLTISSVQAEDVADYHCGQSYNYPYTFGQGTKLEIKR ?
0.55

Which IC50 (nM), HGF stimulated BrdU incorporation in 4MBr-5 cells value belongs to HE2B8-1 (LR2B8HC + IgG1 G1m(3) allele 1 plus LR2B8LC + Kappa Km(3) allele 1) (antibody, V domains shown) VH: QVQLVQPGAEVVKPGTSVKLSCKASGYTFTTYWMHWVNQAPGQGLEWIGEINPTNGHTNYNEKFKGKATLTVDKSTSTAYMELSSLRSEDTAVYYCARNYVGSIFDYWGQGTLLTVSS VL: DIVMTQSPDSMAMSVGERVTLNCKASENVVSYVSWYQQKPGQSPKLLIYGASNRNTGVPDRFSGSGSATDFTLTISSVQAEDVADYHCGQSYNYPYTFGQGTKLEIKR ?
0.47
